target: T1, Cynomolgus monkey BCMA (cynomolgus monkey); assay: SPR, IgG immobilised, cyno BCMA analyte
T1 construct: Soluble analyte in SPR; also called cyBCMA; Cyno BCMA
MEASUREMENT_TYPE: kon (M⁻¹ s⁻¹)

• COMBO_Rd4_6nM_C11 (antibody, V domains shown, IgG) VH: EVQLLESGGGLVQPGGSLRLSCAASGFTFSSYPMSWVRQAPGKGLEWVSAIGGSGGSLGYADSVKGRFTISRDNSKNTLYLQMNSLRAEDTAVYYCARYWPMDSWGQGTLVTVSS VL: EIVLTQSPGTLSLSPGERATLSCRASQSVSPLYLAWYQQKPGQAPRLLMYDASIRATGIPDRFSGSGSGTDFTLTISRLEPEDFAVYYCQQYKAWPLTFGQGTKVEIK = 2.64e+06
• A02_Rd4_0.6nM_C06 (antibody, V domains shown, IgG) VH: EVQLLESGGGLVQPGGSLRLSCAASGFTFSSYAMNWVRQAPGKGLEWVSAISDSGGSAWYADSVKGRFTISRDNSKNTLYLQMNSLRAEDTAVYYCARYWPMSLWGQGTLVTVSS VL: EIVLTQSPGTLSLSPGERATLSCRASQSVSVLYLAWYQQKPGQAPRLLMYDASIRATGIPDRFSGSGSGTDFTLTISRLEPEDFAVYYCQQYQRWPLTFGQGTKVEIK = 1.81e+06
• C01_Rd4_6nM_C24 (antibody, V domains shown, IgG) VH: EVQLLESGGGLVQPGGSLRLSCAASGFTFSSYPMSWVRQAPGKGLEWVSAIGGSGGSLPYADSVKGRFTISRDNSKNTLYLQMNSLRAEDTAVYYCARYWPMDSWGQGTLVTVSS VL: EIVLTQSPGTLSLSPGERATLSCRASQSVSPEYLAWYQQKPGQAPRLLIYDASSRAPGIPDRFSGSGSGTDFTLTISRLEPEDFAVYYCQQYSVWPLTFGQGTKVEIK = 3.17e+06
• A02_Rd4_0.6nM_C26 (antibody, V domains shown, IgG) VH: EVQLLESGGGLVQPGGSLRLSCAASGFTFSSYAMNWVRQAPGKGLEWVSAILMSGGSTYYADSVKGRFTISRDNSKNTLYLQMNSLRAEDTAVYYCARYWPMSLWGQGTLVTVSS VL: EIVLTQSPGTLSLSPGERATLSCGPSQSVSSSYLAWYQQKPGQAPRLLMYDASIRATGIPDRFSGSGSGTDFTLTISRLEPEDFAVYYCQQYQSWPLTFGQGTKVEIK = 2.71e+06
• COMBO_Rd4_6nM_C07 (antibody, V domains shown, IgG) VH: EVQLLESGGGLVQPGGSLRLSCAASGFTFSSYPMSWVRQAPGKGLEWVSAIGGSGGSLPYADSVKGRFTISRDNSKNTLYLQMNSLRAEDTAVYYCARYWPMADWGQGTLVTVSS VL: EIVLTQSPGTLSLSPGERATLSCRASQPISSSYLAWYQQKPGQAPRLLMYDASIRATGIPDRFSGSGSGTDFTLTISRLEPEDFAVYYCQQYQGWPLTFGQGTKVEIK = 3.94e+06
